- tested system: calcium- and phospholipid-dependent protein kinase (PKC)
- assay info: Inhibition of the activity of protein kinase C (incorporation of P^32-labelled phosphate into histone H-1)
- cond: PKC enriched from rat brain; histone H-1 substrate; 5 min, 30° C.; pH 7.5
Counter-ions that a name gives are not always drawn.
Consider the cut-off 3 µM. If the recorded IC50 is strictly smaller, the label is condition met; if not, the label is condition not met.

Check out these entries, answers already filled in.
molecule=CCCCCCCCCCCCCCCCCCOc1cn(Cc2ccccc2)c(CN(C)Cc2ccccc2)cc1=O qualitative_label="condition not met"
molecule="CCCCCCCCCCCCCCCCCCOc1cn(Cc2ccccc2)c(CNCCCN(C)C)cc1=O [Example 54, dioxalate]" qualitative_label="condition met"
molecule="CCCCCCCCCCCCCCCCCCCCOc1cn(Cc2ccccc2)c(CNCCCN(C)C)cc1=O [Example 66, dioxalate monohydrate]" qualitative_label="condition met"
molecule=CCCCCCCCCCCCCCCCCCOc1cn(-c2ccccc2)c(CNCCCN(C)C)cc1=O qualitative_label="condition met"
molecule="CCCCCCCCCCCCCCCCCCOc1cn(C(C)c2ccccc2)c(CN2CCN(Cc3ccccc3)CC2)cc1=O (racemic) [Example 98]" qualitative_label="condition not met"

Dear colleague, could you confirm whether IC50 of CCCCCCCCCCCCCCCCCCOc1cn(Cc2ccc(C)cc2)c(COCCCN(C)C)cc1=O [Example 106, dihydrochloride sesquihydrate] falls below 3 µM? Thanks.
condition met

###

- tested system: calcium- and phospholipid-dependent protein kinase (PKC)
- assay info: Inhibition of the activity of protein kinase C (incorporation of P^32-labelled phosphate into histone H-1)
- cond: PKC enriched from rat brain; histone H-1 substrate; 5 min, 30° C.; pH 7.5
Structures can show the parent of a compound that is named as a salt.
Below, each entry is listed with its recorded IC50.
Please give a number only; it is taken to be in nM.

The examples below pair each entry with its known result.
molecule="CCCCCCCCCCCCCCCCCCOc1cn(Cc2ccccc2)c(CN(C)CCN(C)C)cc1=O [Example 57, trihydrochloride]" obs_value=1900
molecule="CCCCCCCCCCCCCCCCCCOc1cn(Cc2ccccc2)c(CN2CCN(Cc3ccccc3)CC2)cc1=O [Example 93]" obs_value=5500

Using the record for CCCCCCCCCCCCCCCCCCOc1cn(CCCN(C)C)c(CO)cc1=O , report its IC50.
2400

Which IC50 value is on record for CCCCCCCCCCCCCCCCCCOc1cn(Cc2ccccc2)c(CN2CCNCC2C)cc1=O (racemic) ?
2000

###

Measured IC50, listed per entry for reference.
- tested system: calcium- and phospholipid-dependent protein kinase (PKC)
- assay info: Inhibition of the activity of protein kinase C (incorporation of P^32-labelled phosphate into histone H-1)
- cond: PKC enriched from rat brain; histone H-1 substrate; 5 min, 30° C.; pH 7.5
Counter-ions that a name gives are not always drawn.
Enter your answer as a number in µM; do not include the unit.

For orientation, consider the following solved cases.
compound="CCCCCCCCCCCCCCCCCCOc1cn(Cc2ccccc2)c(CN2CCN(CCc3ccccc3)CC2)cc1=O [Example 94]" tested_system="calcium- and phospholipid-dependent protein kinase (PKC)" quantity_measured=IC50 obs_value=2.4
compound="CCCCCCCCCCCCCCCCCCOc1cn(Cc2ccccc2)c(CN2CCN(C(C)c3ccccc3)CC2)cc1=O (racemic) [Example 97]" tested_system="calcium- and phospholipid-dependent protein kinase (PKC)" quantity_measured=IC50 obs_value=4.4
compound="CCCCCCCC/C=C\\CCCCCCCCOc1cn(Cc2ccccc2)c(CNCCCN(C)C)cc1=O [Example 78]" tested_system="calcium- and phospholipid-dependent protein kinase (PKC)" quantity_measured=IC50 obs_value=4.6

# evaluate next
If you can, please state the reported IC50 value of CCCCCCCCCCCCCCCCCCOc1cn(Cc2ccccc2)c(CN(C)CCCN(C)C)cc1=O [Example 89, trihydrochloride] .
1.8

These data points were gathered from patent US5185352A.
